# study system: human Plk4 kinase domain (aa 2-275) (Homo sapiens, UniProt O00444)
# Sequence (O00444 2-275): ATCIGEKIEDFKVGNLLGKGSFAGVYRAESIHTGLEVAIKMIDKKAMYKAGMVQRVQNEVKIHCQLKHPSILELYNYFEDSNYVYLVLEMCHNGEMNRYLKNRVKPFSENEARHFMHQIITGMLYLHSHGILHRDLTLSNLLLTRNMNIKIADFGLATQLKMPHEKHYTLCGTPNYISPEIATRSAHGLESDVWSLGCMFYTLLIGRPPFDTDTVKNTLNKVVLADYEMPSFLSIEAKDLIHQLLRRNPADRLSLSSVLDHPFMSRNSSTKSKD
pIC50: −log10 of the molar value.
metric name: pIC50

Completed entries (count: 5):
COc1c(Nc2cc(C)[nH]n2)nc(Sc2ccc(S(=O)(=O)C(C)(C)c3c(F)c(F)cc(F)c3F)cc2F)nc1N1CCN(CCN(C)C)CC1    > 6.00
COc1c(Nc2cc(C)[nH]n2)nc(Sc2ccc(S(=O)(=O)C(C)(C)c3c(F)c(F)cc(F)c3F)cc2F)nc1N1CCC(NC(C)=O)CC1    > 6.00
COc1c(Nc2cc(C)[nH]n2)nc(Sc2ccc(NC(C)=O)cc2)nc1N1CCC(F)CC1    > 6.00
Cc1cc(Nc2nc(Sc3ccc(NC(=O)C4CC4)cc3)nc(N3CCN(C)CC3)c2Cl)n[nH]1    6.00 to 7.00
COc1c(Nc2cc(C)[nH]n2)nc(Sc2ccc(NC(C)=O)cc2)nc1N1CCC(CC(N)=O)CC1    > 6.00

Kindly review the next compound as well.
Just so you know, measured pIC50 for `COCC(=O)N1CCN(c2nc(Sc3ccc(N)cc3)nc(Nc3cc(C)[nH]n3)c2C)CC1` came out at > 6.00

* * *

# study system: inhibitor-resistant mutant Plk4 (G95L) (Homo sapiens, UniProt O00444, G95L)
# Construct: Plk4 assays used equal volumes of: (1) purified 6×His-tagged human Plk4 kinase domain (aa 2-275); 6xHis; made in house; host or cells: E. coli
# assay: Plk4 (G95L) mutant kinase assay
# Assay type: biochemical
metric name: pKi
Scale: pKi equals -log10([C]), with [C] in mol/L.

Lab entry: inhibitor-resistant mutant Plk4 (G95L) (Homo sapiens, UniProt O00444, G95L) assay, compound `COc1c(Nc2cc(C)[nH]n2)nc(Sc2ccc(S(=O)(=O)Cc3cccc([N+](=O)[O-])c3F)cc2F)nc1N1CCCCC1` , pKi = 6.30

* * *

# study system: human Plk4 kinase domain (aa 2-275) (Homo sapiens, UniProt O00444)
# Sequence (O00444 2-275): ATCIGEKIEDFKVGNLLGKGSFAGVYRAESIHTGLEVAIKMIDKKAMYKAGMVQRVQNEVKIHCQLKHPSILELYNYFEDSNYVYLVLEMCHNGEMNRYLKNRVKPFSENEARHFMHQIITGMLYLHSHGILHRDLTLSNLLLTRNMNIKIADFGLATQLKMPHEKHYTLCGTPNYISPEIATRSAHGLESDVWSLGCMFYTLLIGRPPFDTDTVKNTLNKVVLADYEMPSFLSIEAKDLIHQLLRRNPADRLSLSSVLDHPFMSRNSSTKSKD
pIC50: −log10 of the molar value.
metric name: pIC50

COc1c(Nc2cc(C)[nH]n2)nc(Sc2ccc(NC(C)=O)cc2)nc1N1CCOC[C@@H]1C    > 6.00
COc1c(Nc2cc(C)[nH]n2)nc(Sc2ccc(S(=O)(=O)C(C)(C)c3cccc([N+](=O)[O-])c3F)cc2F)nc1N1CCOC[C@@H]1CO    > 6.00
CCSc1c(Nc2cc(C)[nH]n2)nc(Sc2ccc(NC(=O)C3CC3)cc2)nc1N1CCN(C)CC1    6.00 to 7.00
COc1c(Nc2cc(C)[nH]n2)nc(Sc2ccc(S(=O)(=O)Cc3ccccc3)cc2)nc1N1CCN(CCN2CCC2)CC1    > 6.00
COc1c(Nc2cc(C)[nH]n2)nc(Sc2ccc(S(=O)(=O)C(C)(C)c3c(F)c(F)cc(F)c3F)cc2F)nc1N1CCC(OC)CC1    > 6.00
CC(=O)Nc1ccc(Sc2nc(Nc3cc(C)[nH]n3)c(C)c(N3CCCCCC3)n2)cc1    > 6.00
COc1c(Nc2cc(C)[nH]n2)nc(Sc2ccc(NC(C)=O)cc2)nc1N1CCN(CC(=O)N2CCOCC2)CC1    > 6.00

Next up:
Sample `CCc1c(Nc2cc(C)[nH]n2)nc(Sc2ccc(NC(=O)C3CC3)cc2)nc1N1CCN(C)CC1` ; pIC50 observed: < 6.00
